# IC50 per record follows
System: B16
Experimental Details: Antiproliferative activity against mouse B16 cells after 72 hrs MTT assay
Type: functional, cell-based
Condition Info: B16, 72 h
Property: IC50 (µM)

• C=C(C)[C@@H]1CC[C@]2(C(=O)OCC(=O)OCC)CC[C@]3(C)[C@H](CC[C@@H]4[C@@]5(C)CC/C(=N\O)[C@@](C)(CO)[C@@H]5CC[C@]43C)[C@@H]12 = 17.8
• C=C(C)[C@@H]1CC[C@]2(C(=O)OCC(=O)O)CC[C@]3(C)[C@H](CC[C@@H]4[C@@]5(C)CC/C(=N\O)[C@@](C)(CO)[C@@H]5CC[C@]43C)[C@@H]12 = 17.4
• C=C(C)[C@@H]1CC[C@]2(C(=O)OCc3ccccc3)CC[C@]3(C)[C@H](CC[C@@H]4[C@@]5(C)CC/C(=N\NS(=O)(=O)c6ccc(C)cc6)[C@@](C)(CO)[C@@H]5CC[C@]43C)[C@@H]12 = 16.2
